Data provenance: PubChem BioAssay AID1963431

- Tested on: Rh18 complex spheroid viability, percent test/control
- PROCEDURE TEXT: Anticancer human tumor Rh18 cell line growth inhibition [Asc]; active = viability on the fitted dose curve at most 10% of control; inactive = the rest;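 also: spheroids exposed to compound for 7 days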
- CONDITION DESCRIPTION: second compound 0.316 µM; first compound 0.03 µM
Write down one outcome, taken from active, inactive

Cc1nc(N2CCC3(CC2)COC(C)C3N)c(CO)nc1Sc1ccnc(N)c1Cl (centres undefined) + Cc1c(S(C)(=O)=O)c(-c2cc(F)cc(N3CCN(c4ccc(NS(=O)(=O)c5ccc(NC(CCN6CCC(C(=O)OCCCP(=O)(O)O)CC6)CSc6ccccc6)c(S(=O)(=O)C(F)(F)F)c5)cc4)CC3)c2)c(-c2ccc(Cl)cc2)n1C(C)C    active
CCN1C(C(=O)NC23CCC(C(=O)O)(CC2)CC3)C(c2cccc(Cl)c2F)C2(C(=O)Nc3cc(Cl)ccc32)C12CCCCC2 (centres undefined) + Cc1c(S(C)(=O)=O)c(-c2cc(F)cc(N3CCN(c4ccc(NS(=O)(=O)c5ccc(NC(CCN6CCC(C(=O)OCCCP(=O)(O)O)CC6)CSc6ccccc6)c(S(=O)(=O)C(F)(F)F)c5)cc4)CC3)c2)c(-c2ccc(Cl)cc2)n1C(C)C    inactive
CCN1C(C(=O)NC23CCC(C(=O)O)(CC2)CC3)C(c2cccc(Cl)c2F)C2(C(=O)Nc3cc(Cl)ccc32)C12CCCCC2 (centres undefined) + CNC(C)C(=O)NC1CN(S(=O)(=O)c2cccc(S(=O)(=O)N3CCC4CCC(C(=O)NC(c5ccccc5)c5ccccc5)N4C(=O)C(NC(=O)C(C)NC)C3)c2)CCC2CCC(C(=O)NC(c3ccccc3)c3ccccc3)N2C1=O    inactive

[in] // outcome(item) with item = NC(=O)C(=Cn1cnc(-c2cc(C(F)(F)F)cc(C(F)(F)F)c2)n1)c1cncnc1 + Cc1c(S(C)(=O)=O)c(-c2cc(F)cc(N3CCN(c4ccc(NS(=O)(=O)c5ccc(NC(CCN6CCC(C(=O)OCCCP(=O)(O)O)CC6)CSc6ccccc6)c(S(=O)(=O)C(F)(F)F)c5)cc4)CC3)c2)c(-c2ccc(Cl)cc2)n1C(C)C
[out] active

###

- System: Rh18 complex spheroid viability, percent test/control
- PROCEDURE TEXT: Anticancer human tumor Rh18 cell line growth inhibition [Asc];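 also: spheroids exposed to compound for 7 days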;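 as to viability, T/C: 100% = DMSO vehicle control wells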
- CONDITION DESCRIPTION: second compound 3 µM; first compound 0.01 µM; stronger effect = lower value
ATTRIBUTE MEASURED: viability, T/C (%)
Value expressed in %; do not type the unit.

COc1c(OCCCN2CCOCC2)ccc2c3n(c(=NC(=O)c4cnc(N)nc4)nc12)CCN3 + CCN1C(C(=O)NC23CCC(C(=O)O)(CC2)CC3)C(c2cccc(Cl)c2F)C2(C(=O)Nc3cc(Cl)ccc32)C12CCCCC2    8.55

[in] Fill in the blank: the reported viability, T/C of NC1CCC(NC2CC2c2ccccc2)CC1 (stereo unspecified) + CCN1C(C(=O)NC23CCC(C(=O)O)(CC2)CC3)C(c2cccc(Cl)c2F)C2(C(=O)Nc3cc(Cl)ccc32)C12CCCCC2 is ____.
[out] 10.1

[in] Fill in the blank: the reported viability, T/C of CNC(C)C(=O)NC1CN(S(=O)(=O)c2cccc(S(=O)(=O)N3CCC4CCC(C(=O)NC(c5ccccc5)c5ccccc5)N4C(=O)C(NC(=O)C(C)NC)C3)c2)CCC2CCC(C(=O)NC(c3ccccc3)c3ccccc3)N2C1=O (stereo unspecified) + CCN1C(C(=O)NC23CCC(C(=O)O)(CC2)CC3)C(c2cccc(Cl)c2F)C2(C(=O)Nc3cc(Cl)ccc32)C12CCCCC2 is ____.
[out] 8.24

[in] Fill in the blank: the reported viability, T/C of CCN1CCN(Cc2ccc(Nc3ncc(F)c(-c4cc(F)c5nc(C)n(C(C)C)c5c4)n3)nc2)CC1 + CCN1C(C(=O)NC23CCC(C(=O)O)(CC2)CC3)C(c2cccc(Cl)c2F)C2(C(=O)Nc3cc(Cl)ccc32)C12CCCCC2 is ____.
[out] 7.11

[in] Fill in the blank: the reported viability, T/C of Cn1ncnc1[C@H]1c2n[nH]c(=O)c3cc(F)cc(c23)N[C@@H]1c1ccc(F)cc1 + CCN1C(C(=O)NC23CCC(C(=O)O)(CC2)CC3)C(c2cccc(Cl)c2F)C2(C(=O)Nc3cc(Cl)ccc32)C12CCCCC2 is ____.
[out] 7.51

[in] Fill in the blank: the reported viability, T/C of O=C(c1ccc(F)c(F)c1Nc1ccc(I)cc1F)N1CC(O)([C@@H]2CCCCN2)C1 + CCN1C(C(=O)NC23CCC(C(=O)O)(CC2)CC3)C(c2cccc(Cl)c2F)C2(C(=O)Nc3cc(Cl)ccc32)C12CCCCC2 is ____.
[out] 11.4

###

- System: Rh18 complex spheroid viability, percent test/control
- PROCEDURE TEXT: Anticancer human tumor Rh18 cell line growth inhibition [Asc]; active = viability on the fitted dose curve at most 10% of control; inactive = the rest;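 also: spheroids exposed to compound for 7 days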
- CONDITION DESCRIPTION: second compound 1 µM; first compound 0.01 µM
Write down one outcome, taken from true (1) for active, false (0) for inactive

Cn1ncnc1[C@H]1c2n[nH]c(=O)c3cc(F)cc(c23)N[C@@H]1c1ccc(F)cc1 + Cc1c(S(C)(=O)=O)c(-c2cc(F)cc(N3CCN(c4ccc(NS(=O)(=O)c5ccc(NC(CCN6CCC(C(=O)OCCCP(=O)(O)O)CC6)CSc6ccccc6)c(S(=O)(=O)C(F)(F)F)c5)cc4)CC3)c2)c(-c2ccc(Cl)cc2)n1C(C)C    true (1)

Proceed to the following item.
[in] // outcome(item) with item = NC1CCC(NC2CC2c2ccccc2)CC1 (configuration not stated) + CNC(C)C(=O)NC1CN(S(=O)(=O)c2cccc(S(=O)(=O)N3CCC4CCC(C(=O)NC(c5ccccc5)c5ccccc5)N4C(=O)C(NC(=O)C(C)NC)C3)c2)CCC2CCC(C(=O)NC(c3ccccc3)c3ccccc3)N2C1=O
[out] false (0)

###

- Tested on: Rh18 complex spheroid viability, percent test/control
- PROCEDURE TEXT: Anticancer human tumor Rh18 cell line growth inhibition [Asc];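 also: spheroids exposed to compound for 7 days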
- CONDITION DESCRIPTION: curve of first compound; second compound 3.16 µM
Listing: IC50 of selected molecules

Below are worked cases with known answers.
C=C(F)C(=O)N1CCN(c2nc(OCC3CCCN3C)nc3c2CCN(c2cccc4cccc(Cl)c24)C3)CC1CC#N (stereo not drawn) + Cc1c(S(C)(=O)=O)c(-c2cc(F)cc(N3CCN(c4ccc(NS(=O)(=O)c5ccc(NC(CCN6CCC(C(=O)OCCCP(=O)(O)O)CC6)CSc6ccccc6)c(S(=O)(=O)C(F)(F)F)c5)cc4)CC3)c2)c(-c2ccc(Cl)cc2)n1C(C)C    < 31.6 nM
NC(=O)C(=Cn1cnc(-c2cc(C(F)(F)F)cc(C(F)(F)F)c2)n1)c1cncnc1 + Cc1c(S(C)(=O)=O)c(-c2cc(F)cc(N3CCN(c4ccc(NS(=O)(=O)c5ccc(NC(CCN6CCC(C(=O)OCCCP(=O)(O)O)CC6)CSc6ccccc6)c(S(=O)(=O)C(F)(F)F)c5)cc4)CC3)c2)c(-c2ccc(Cl)cc2)n1C(C)C    < 0.949 nM

[in] Fill in the blank: the reported IC50 of CCN1C(C(=O)NC23CCC(C(=O)O)(CC2)CC3)C(c2cccc(Cl)c2F)C2(C(=O)Nc3cc(Cl)ccc32)C12CCCCC2 (stereo not drawn) + Cc1c(S(C)(=O)=O)c(-c2cc(F)cc(N3CCN(c4ccc(NS(=O)(=O)c5ccc(NC(CCN6CCC(C(=O)OCCCP(=O)(O)O)CC6)CSc6ccccc6)c(S(=O)(=O)C(F)(F)F)c5)cc4)CC3)c2)c(-c2ccc(Cl)cc2)n1C(C)C is ____.
[out] < 9.49 nM

###

- Tested on: Rh18 complex spheroid viability, percent test/control
- PROCEDURE TEXT: Anticancer human tumor Rh18 cell line growth inhibition [Asc];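 also: spheroids exposed to compound for 7 days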;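 as to viability, T/C: 100% = DMSO vehicle control wells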
- CONDITION DESCRIPTION: second compound 0.1 µM; first compound 0.00949 µM; stronger effect = lower value
Listing: viability, T/C of selected compounds
Value expressed in %; do not type the unit.

CCN1C(C(=O)NC23CCC(C(=O)O)(CC2)CC3)C(c2cccc(Cl)c2F)C2(C(=O)Nc3cc(Cl)ccc32)C12CCCCC2 (stereo unspecified) + CNC(C)C(=O)NC1CN(S(=O)(=O)c2cccc(S(=O)(=O)N3CCC4CCC(C(=O)NC(c5ccccc5)c5ccccc5)N4C(=O)C(NC(=O)C(C)NC)C3)c2)CCC2CCC(C(=O)NC(c3ccccc3)c3ccccc3)N2C1=O    20.6
NC(=O)C(=Cn1cnc(-c2cc(C(F)(F)F)cc(C(F)(F)F)c2)n1)c1cncnc1 + CNC(C)C(=O)NC1CN(S(=O)(=O)c2cccc(S(=O)(=O)N3CCC4CCC(C(=O)NC(c5ccccc5)c5ccccc5)N4C(=O)C(NC(=O)C(C)NC)C3)c2)CCC2CCC(C(=O)NC(c3ccccc3)c3ccccc3)N2C1=O    49.7
NC(=O)C(=Cn1cnc(-c2cc(C(F)(F)F)cc(C(F)(F)F)c2)n1)c1cncnc1 + Cc1c(S(C)(=O)=O)c(-c2cc(F)cc(N3CCN(c4ccc(NS(=O)(=O)c5ccc(NC(CCN6CCC(C(=O)OCCCP(=O)(O)O)CC6)CSc6ccccc6)c(S(=O)(=O)C(F)(F)F)c5)cc4)CC3)c2)c(-c2ccc(Cl)cc2)n1C(C)C    18.6
Cc1nc(N2CCC3(CC2)COC(C)C3N)c(CO)nc1Sc1ccnc(N)c1Cl (stereo unspecified) + Cc1c(S(C)(=O)=O)c(-c2cc(F)cc(N3CCN(c4ccc(NS(=O)(=O)c5ccc(NC(CCN6CCC(C(=O)OCCCP(=O)(O)O)CC6)CSc6ccccc6)c(S(=O)(=O)C(F)(F)F)c5)cc4)CC3)c2)c(-c2ccc(Cl)cc2)n1C(C)C    11.9
Cc1nc(N2CCC3(CC2)COC(C)C3N)c(CO)nc1Sc1ccnc(N)c1Cl (stereo unspecified) + CNC(C)C(=O)NC1CN(S(=O)(=O)c2cccc(S(=O)(=O)N3CCC4CCC(C(=O)NC(c5ccccc5)c5ccccc5)N4C(=O)C(NC(=O)C(C)NC)C3)c2)CCC2CCC(C(=O)NC(c3ccccc3)c3ccccc3)N2C1=O    63

[in] Item CCN1C(C(=O)NC23CCC(C(=O)O)(CC2)CC3)C(c2cccc(Cl)c2F)C2(C(=O)Nc3cc(Cl)ccc32)C12CCCCC2 (stereo unspecified) + Cc1c(S(C)(=O)=O)c(-c2cc(F)cc(N3CCN(c4ccc(NS(=O)(=O)c5ccc(NC(CCN6CCC(C(=O)OCCCP(=O)(O)O)CC6)CSc6ccccc6)c(S(=O)(=O)C(F)(F)F)c5)cc4)CC3)c2)c(-c2ccc(Cl)cc2)n1C(C)C with Rh18 complex spheroid viability, percent test/control - viability, T/C?
[out] 19
